Provenance of the data: PubChem BioAssay AID504652

Below, each entry is listed with its recorded activity change, negative = inhibition.
- Target Or Test System: D(1A) dopamine receptor (Homo sapiens) (UniProt P21728)
- Sequence (P21728 whole entry, looked up): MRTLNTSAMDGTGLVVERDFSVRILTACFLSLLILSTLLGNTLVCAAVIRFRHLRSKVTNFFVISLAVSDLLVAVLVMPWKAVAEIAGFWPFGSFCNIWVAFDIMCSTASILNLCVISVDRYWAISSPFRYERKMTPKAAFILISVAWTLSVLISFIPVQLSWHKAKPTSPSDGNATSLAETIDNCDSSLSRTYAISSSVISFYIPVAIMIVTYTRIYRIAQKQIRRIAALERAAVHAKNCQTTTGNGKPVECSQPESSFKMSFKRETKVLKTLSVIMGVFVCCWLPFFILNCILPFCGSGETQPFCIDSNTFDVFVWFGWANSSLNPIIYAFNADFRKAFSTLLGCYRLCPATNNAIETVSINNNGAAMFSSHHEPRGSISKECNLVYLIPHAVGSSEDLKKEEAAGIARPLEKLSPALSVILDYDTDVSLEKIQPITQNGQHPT
- Experiment Description: Antagonist of Human D 1 Dopamine Receptor: qHTS; further: on the % scale 0 is the no-effect control and ±100 the full control effect
- Conditions Used: HEK293 TREx D1 cells, calcium flux, dopamine EC80; at 10 µM; active compounds read low
Screen size: about 360,000 compounds; about 11,000 (3.1%) were called active. Only a selection was taken, and actives are over-represented in it overall.
Kindly answer with a numeric value in %, unit omitted.

- COc1cc(NC(=O)c2cc(C3CC3)nc3c2c(C)nn3-c2ccccc2)cc(OC)c1: 0.344
- CCOc1ccc(CCNC(=O)c2c(C)oc3ncn(C)c(=O)c23)cc1: 3.92
- COC(=O)c1ccccc1NC(=O)c1ccc(C#N)cc1: 6.29
- COc1ccccc1C(=O)Nc1c(C(=O)Nc2ccc(C)cc2)oc2ccccc12: 2.57
- CCOc1cccc(NC(=O)c2ccc(F)c(S(=O)(=O)N(CC)c3cccc(C)c3)c2)c1: 16.1
- CC(=O)c1ccc(NC(=O)CSc2c(C(C)C)cnc3c2c(=O)n(C)c(=O)n3C)cc1: 1.89
- Fc1ccccc1C(c1nnnn1Cc1ccc2c(c1)OCO2)N1CCN(Cc2ccccc2)CC1 (stereo not drawn): 19.9
- Fc1ccc(Cn2nnnc2C(c2cccs2)N2CCCCCC2)cc1 (stereo not drawn): -36.7

Exercise: Report measured activity change, negative = inhibition on D(1A) dopamine receptor (Homo sapiens) (UniProt P21728); entry: `Cc1cc(F)ccc1NC(=S)NCCc1ccccc1`
Solution: -15.6

Exercise: Name the value of activity change, negative = inhibition reported for `Cc1cccc(N2CCN(C(=O)c3ccc4c(c3)CCN4S(=O)(=O)c3ccccc3)CC2)c1C` when tested on D(1A) dopamine receptor (Homo sapiens) (UniProt P21728).
Solution: -15.6

Exercise: Name the recorded activity change, negative = inhibition of `COc1ccc(Cl)cc1NC(=O)Cn1c(=O)c2ccccc2n2nncc12` , assay system D(1A) dopamine receptor (Homo sapiens) (UniProt P21728).
Solution: 3.48

Exercise: Determine reported activity change, negative = inhibition for `COc1ccc(S(=O)(=O)c2c(Nc3cccc(Cl)c3)sc(C(=O)c3ccccc3)c2N)cc1` ; test system: D(1A) dopamine receptor (Homo sapiens) (UniProt P21728).
Solution: -73.9

Exercise: # return activity change, negative = inhibition of `S=C(NCc1ccco1)NCc1ccccc1Cl` (system: D(1A) dopamine receptor (Homo sapiens) (UniProt P21728))
Solution: -32.9

Exercise: Give measured activity change, negative = inhibition for `Cc1ccc(C(=O)Nc2ccc(OCc3cc(=O)n4c5c(sc4n3)CCCC5)cc2)cc1` (D(1A) dopamine receptor (Homo sapiens) (UniProt P21728)).
Solution: -13.4

Exercise: State activity change, negative = inhibition on D(1A) dopamine receptor (Homo sapiens) (UniProt P21728). Entry: `COc1cccc(NC(=O)Cn2c(=O)cc(C)c3c(C)nn(-c4cccc(F)c4)c32)c1`
Solution: 11.7

Exercise: State the measured activity change, negative = inhibition (D(1A) dopamine receptor (Homo sapiens) (UniProt P21728)) of CCOC(=O)c1c(NC(=O)/C=C/c2ccc(OC)cc2)sc2c1CCC(C)C2 (stereo not drawn)
Solution: -4.93

Exercise: // output activity change, negative = inhibition; input `CCCS(=O)(=O)c1c(Nc2ccccc2C)sc(C(=O)c2ccccc2)c1N` ; system D(1A) dopamine receptor (Homo sapiens) (UniProt P21728)
Solution: 0.973

Exercise: Return reported activity change, negative = inhibition for target or system D(1A) dopamine receptor (Homo sapiens) (UniProt P21728), item `Cc1ccc(NC(=O)CCCn2c(=O)c3cccn3c3ccccc32)cc1Cl` .
Solution: -14.3

Exercise: State measured activity change, negative = inhibition of the compound O=C(Nc1ccc2c(c1)OCO2)C1CC1(Cl)Cl (stereo not drawn) with D(1A) dopamine receptor (Homo sapiens) (UniProt P21728).
Solution: -9.18

Exercise: Please respond with reported activity change, negative = inhibition (system D(1A) dopamine receptor (Homo sapiens) (UniProt P21728)) for CCN1CCCC1CNC(=O)c1cc2c(=O)n(C)c3ccccc3c2n1C (stereo not drawn) .
Solution: -10.7

Exercise: # return activity change, negative = inhibition of COc1ccc(C2C(C#N)=C(/N=C/N3CCOCC3)OC3=C2C(=O)CC(C)(C)C3)cc1OC (stereo not drawn) (system: D(1A) dopamine receptor (Homo sapiens) (UniProt P21728))
Solution: 4.71

Exercise: Give activity change, negative = inhibition for this entry on D(1A) dopamine receptor (Homo sapiens) (UniProt P21728): `CC(C)N(Cc1ccccc1)C(=S)Nc1ccc(OC(F)F)cc1`
Solution: -4.75

Exercise: Tell me activity change, negative = inhibition of `O=C(Nc1ccc2c(c1)OCO2)c1cc(-c2cccc(Cl)c2)on1` when tested on D(1A) dopamine receptor (Homo sapiens) (UniProt P21728).
Solution: -3.15

Exercise: Provide activity change, negative = inhibition, recorded with D(1A) dopamine receptor (Homo sapiens) (UniProt P21728), of `CC1(C)CN=C(N2CCN(c3ncnc4sc5c(c34)CCCC5)CC2)S1`
Solution: -2.14

Exercise: Answer briefly: activity change, negative = inhibition recorded on D(1A) dopamine receptor (Homo sapiens) (UniProt P21728) for Cc1ccc(C)c(N2CCN(S(=O)(=O)c3ccc4c(c3)C(C(C)C)C(=O)N4)CC2)c1 (stereo not drawn)
Solution: -23.5

Exercise: Determine reported activity change, negative = inhibition for `COCCCNC(=O)/C(C#N)=C/c1c(N2CCCCCC2)nc2ccccn2c1=O` ; test system: D(1A) dopamine receptor (Homo sapiens) (UniProt P21728).
Solution: 13.8

Exercise: Would you please give the reported activity change, negative = inhibition of `Cc1ccc(C(=O)Nc2nc(N)n(-c3ccccc3)n2)cc1` with D(1A) dopamine receptor (Homo sapiens) (UniProt P21728)?
Solution: -1.57
